Where do the numbers come from? From ChEMBL document CHEMBL4613258.

Assay: Inhibition of calmodulin (unknown origin)
Conditions: Homo sapiens
So basically: is ID50 under 5 µg/mL? Then Met. Not under? Then Not met.

# smiles-structure, group
measured = [
    ("CC(C)=CCc1c(CCc2ccccc2)cc(O)c(O)c1O", "Met"),
    ("CC(C)=CCC/C(C)=C/Cc1c(O)cc(O)cc1CCc1ccccc1", "Met"),
    ("C=C(C)[C@H]1Cc2c(CCc3ccccc3)cc(O)c(O)c2O1", "Met"),
    ("CC1=CCc2c(cc(CCc3ccc(O)cc3)c(C(=O)O)c2O)OC1", "Not met"),
    ("CC1=CCc2c(O)cc(CCc3ccccc3)cc2OC1", "Not met"),
]

* * *

Experiment: Inhibition of DNA polymerase beta (unknown origin)
Set-up: species or system Homo sapiens
pIC50: −log10 of the molar value.
endpoint-name: pIC50

# smiles-structure, value-observed
data = [
    ("Oc1cccc(CCc2ccc(Oc3cc(CCc4cccc(O)c4)cc(O)c3O)cc2)c1", "3.94 to 4.01"),
]
